# measurement_notes: qHTS assay to identify small molecule antagonists of the sonic hedgehog signaling (Shh) pathway - cell viability counter screen (AID 1259367); further: on the % scale 0 is the no-effect control and ±100 the full control effect; nearly all actives have a fitted effect of over 55% in size
# cond: NIH/3T3 Gli1-Luc viability, CellTiter-Fluor, 24 h; series mostly up to 92.4 µM
Records with an inconclusive call do not appear. The source made the active and inactive calls. The call rests on the fitted dose curve; in most records, active means well fitted cell-killing curve with a large enough effect in the repeat runs; inconclusive means weak or mixed curves, or effect the other way; inactive means no such curve, though single readings can be large or run the other way.

| compound | viability change, negative = cytotoxic |
| --- | --- |
| CCC1Nc2cc(Cl)c(S(N)(=O)=O)cc2S(=O)(=O)N1 (configuration not stated) | inactive |
| CCOC(=O)CC#N | inactive |
| O=C1CC[C@H](C(=O)N2CCCCC2)N1 | inactive |
| CCCCCCCCCCCCCCCCI | -1.6% [at 19 µM] (inactive) |
| Cc1ccc2c(c1)c1c3n2CCNC3CCC1 (configuration not stated) | inactive |
| NS(=O)(=O)c1ccccc1OC(F)(F)F | inactive |
| C=CCOC(=O)c1ccc(C(=O)OCC=C)c(C(=O)OCC=C)c1 | inactive |
| Cc1ccc(S(=O)(=O)NC(=O)NC2CCCCCCC2)cc1 | inactive |
| c1ccc(CNc2ncnc3nc[nH]c23)cc1 | inactive |
| CC(=O)OC(C(=O)c1ccccc1)c1ccccc1 (configuration not stated) | inactive |
| CC(=O)c1ccc(OCC(=O)N2CCCCC2)cc1 | inactive |
| CCCO | inactive |
| CCCCCCCCCCC | inactive |
| BrC/C=C/CBr | -1.72% [at 19 µM] (inactive) |
| CCN1CN(CC)CN(CC)C1 | inactive |
| Nc1ccc(S(=O)(=O)Nc2ccccn2)cc1 | inactive |
| Cc1nc2n(c(=O)c1CCN1CCC(C(=O)c3ccc(F)cc3)CC1)CCS2 | inactive |
| CC(C)COC(=O)CCCCC(=O)OCC(C)C | inactive |
| O=C1OC(=O)c2cc(Oc3ccc4c(c3)C(=O)OC4=O)ccc21 | inactive |
| O=C1c2ccccc2-c2ccccc21 | inactive |
| CN(C1CCCCC1)S(=O)(=O)c1ccccc1N | inactive |
| O=S(=O)(O)SSS(=O)(=O)O | inactive |
| OC[C@@H](O)[C@H](O)[C@@H](O)[C@@H](O)CO | inactive |
| COCC(=O)Nc1c(I)c(C(=O)NCC(O)CO)c(I)c(C(=O)N(C)CC(O)CO)c1I (configuration not stated) | inactive |
| CC1CCC(C(C)(C)S)C(=O)C1 (configuration not stated) | inactive |
| C=CCOc1c(Br)cc(C(C)(C)c2cc(Br)c(OCC=C)c(Br)c2)cc1Br | inactive |
| Nc1nc(=O)n([C@@H]2O[C@H](CO)[C@@H](O)[C@@H]2F)cc1I | inactive |
| CC(=O)/C=C/c1ccco1 | inactive |
| OCCCCCCCl | inactive |
| O=c1[nH]c(=O)c2ccccc2o1 | inactive |
| C=CC(C)(O)CC/C=C(\C)CC (configuration not stated) | inactive |
| CN(C)CCCNCCC#N | inactive |
| CCOC(=O)CCCCCCCCC(=O)OCC | inactive |
| CC(C)COC(=O)COc1ccc(Cl)cc1Cl | inactive |
| O=S(=O)(O)c1cc(O)ccc1O | inactive |
| CCCCCCCCCCCCCCCC(=O)NCCO | inactive |
| CC(=O)N1CCN(c2ccc(O)cc2)CC1 | inactive |
| NS(=O)(=O)c1cc2c(cc1Cl)NC(C(Cl)Cl)NS2(=O)=O (configuration not stated) | inactive |
| COc1ccc(OC)c(NC(=O)CC(C)=O)c1 | inactive |
| O=C(/C=C/c1ccccc1)NCCO | inactive |
| C[Si]1(C)N[Si](C)(C)N[Si](C)(C)N1 | inactive |
| CC(C)SCc1ccco1 | inactive |
| C1=C\CC/C=C\CC/1 | inactive |
| CCc1nccnc1C | inactive |
| O=C1NC2NC(=O)NC2N1 (configuration not stated) | inactive |
| COc1cc2c3cc1Oc1cc(ccc1O)C[C@@H]1c4c(cc(OC)c(O)c4Oc4ccc(cc4)C[C@@H]3N(C)CC2)CC[N+]1(C)C | inactive |
| CCCCCCCC/C=C\CCCCCCCC(=O)OC[C@@H](O)[C@H]1OC[C@H](O)[C@H]1O | inactive |
| C=CCCCCCCCCCCC | 2.53% [at 8.39 µM] (inactive) |
| CC(=O)OCCCc1ccccc1 | inactive |
| O=[Si]=O | inactive |
| Nc1cc(C(=O)O)ccc1Cl | inactive |
| CC(C)CCC(=O)CCC(C)C | inactive |
| Cc1oc(=O)oc1CN1CCN(c2cc3c(cc2F)c(=O)c(C(=O)O)c2n3C(C)S2)CC1 (configuration not stated) | inactive |
| C[C@H]1O[C@H](O[C@H]2[C@H](O)[C@@H](O)[C@@H](O[C@H]3[C@H](O)[C@@H](O)[C@H](O)O[C@@H]3CO)O[C@@H]2CO)[C@H](O)[C@@H](O)[C@@H]1N[C@H]1C=C(CO)[C@@H](O)[C@H](O)[C@H]1O | inactive |
| CCCCCCCCCCCCC1CO1 (configuration not stated) | inactive |
| CCOc1ccc(NC(=O)OC(C)C)cc1OCC | inactive |
| CCCCOC(=O)C(C)OC(=O)CCC (configuration not stated) | inactive |
